# IC50 per record follows
# measured on: Epidermal growth factor receptor (Homo sapiens)
# Sequence (P00533 whole entry): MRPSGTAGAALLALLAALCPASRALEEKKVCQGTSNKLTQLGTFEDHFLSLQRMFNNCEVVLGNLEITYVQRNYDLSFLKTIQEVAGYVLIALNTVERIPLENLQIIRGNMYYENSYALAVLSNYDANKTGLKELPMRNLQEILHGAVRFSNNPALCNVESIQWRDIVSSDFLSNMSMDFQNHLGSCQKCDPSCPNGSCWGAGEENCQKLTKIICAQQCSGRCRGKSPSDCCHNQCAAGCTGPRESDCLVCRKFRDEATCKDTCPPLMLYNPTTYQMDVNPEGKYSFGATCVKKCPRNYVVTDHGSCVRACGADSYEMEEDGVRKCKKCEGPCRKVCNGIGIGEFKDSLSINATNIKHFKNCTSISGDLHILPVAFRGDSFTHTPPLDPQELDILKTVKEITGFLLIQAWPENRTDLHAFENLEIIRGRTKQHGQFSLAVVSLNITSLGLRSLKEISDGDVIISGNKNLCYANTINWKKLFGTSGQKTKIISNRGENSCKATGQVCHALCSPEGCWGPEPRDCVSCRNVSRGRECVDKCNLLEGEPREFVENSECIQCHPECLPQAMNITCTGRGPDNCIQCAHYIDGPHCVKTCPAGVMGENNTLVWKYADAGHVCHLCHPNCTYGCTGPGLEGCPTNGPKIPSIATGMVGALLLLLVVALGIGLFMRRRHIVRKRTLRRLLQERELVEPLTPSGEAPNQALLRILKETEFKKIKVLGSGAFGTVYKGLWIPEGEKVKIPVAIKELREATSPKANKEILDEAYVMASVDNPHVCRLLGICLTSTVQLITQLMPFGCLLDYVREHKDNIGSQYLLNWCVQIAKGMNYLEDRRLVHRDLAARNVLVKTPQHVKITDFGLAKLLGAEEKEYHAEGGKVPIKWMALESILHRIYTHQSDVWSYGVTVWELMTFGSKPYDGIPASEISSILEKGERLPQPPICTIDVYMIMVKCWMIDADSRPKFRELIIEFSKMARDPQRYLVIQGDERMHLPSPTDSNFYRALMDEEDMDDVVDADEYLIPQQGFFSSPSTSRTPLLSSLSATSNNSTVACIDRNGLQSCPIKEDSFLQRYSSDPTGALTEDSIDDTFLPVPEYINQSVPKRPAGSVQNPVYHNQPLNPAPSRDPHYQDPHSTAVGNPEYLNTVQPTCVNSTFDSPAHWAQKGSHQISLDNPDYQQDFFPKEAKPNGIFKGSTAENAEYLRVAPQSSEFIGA
# test: Evaluation of inhibitory activity against phospholipase C-gamma1 phosphorylation by Epidermal growth factor receptor enzyme isolated from A431 cells.
assay readout: IC50

>>> result("Brc1cccc(Oc2ncnc3ccccc23)c1")
"756 nM"
>>> result("O=[N+]([O-])c1ccc2c(Nc3cccc(Br)c3)ncnc2c1")
"1000 nM"
>>> result("Nc1ccc2ncnc(NCc3ccccc3)c2c1")
"1400 nM"
>>> result("Cc1cccc(Nc2ncnc3ccccc23)c1")
"910 nM"
>>> result("Nc1cccc2c(Nc3cccc(Br)c3)ncnc12")
"105 nM"
>>> result("O=[N+]([O-])c1cccc2c(Nc3cccc(Br)c3)ncnc12")
"> 10000 nM"
>>> result("COc1ccc(CNc2ncnc3ccccc23)cc1")
"10000 nM"
>>> result("COc1cccc2ncnc(Nc3cccc(Br)c3)c12")
"139 nM"
>>> result("O=[N+]([O-])c1ccc2c(NCc3ccccc3)ncnc2c1")
"5900 nM"
>>> result("O=[N+]([O-])c1ccc2ncnc(Nc3cccc(Br)c3)c2c1")
"897 nM"
>>> result("Nc1ccc2c(NCc3ccccc3)ncnc2c1")
"> 1000 nM"
>>> result("CN(c1ccccc1)c1ncnc2ccccc12")
"100000 nM"
